# remaining at 8 h, 42.1 μg/mL per record follows
Experiment: Plasma stability, human plasma
Assay type: in vitro ADME
Settings: human, plasma
measuredParameter: remaining at 8 h, 42.1 μg/mL

[[record]]
chemsmiles = "C[C@@]12CCC[C@H]1[C@@H]1CC[C@@H]3C[C@H](NC(=O)[C@@H](N)CC(=O)O)CC[C@]3(C)[C@H]1CC2"
result = "100%"

[[record]]
chemsmiles = "C[C@@]12CCC[C@H]1[C@@H]1CC[C@@H]3C[C@H](NC(=O)C[C@H](N)C(=O)O)CC[C@]3(C)[C@H]1CC2"
result = "100%"

[[record]]
chemsmiles = "CC(C)(C)OC(=O)N[C@@H](CC(=O)O)C(=O)N[C@@H]1CC[C@@]2(C)[C@H](CC[C@H]3[C@@H]4CCC[C@@]4(C)CC[C@@H]32)C1"
result = "100%"

[[record]]
chemsmiles = "CC(C)(C)OC(=O)N[C@H](CCC(=O)N[C@@H]1CC[C@@]2(C)[C@H](CC[C@H]3[C@@H]4CCC[C@@]4(C)CC[C@@H]32)C1)C(=O)O"
result = "100%"

[[record]]
chemsmiles = "C[C@@]12CCC[C@H]1[C@@H]1CC[C@@H]3C[C@H](NC(=O)CC(=O)O)CC[C@]3(C)[C@H]1CC2"
result = "98%"

[[record]]
chemsmiles = "C[C@@]12CCC[C@H]1[C@@H]1CC[C@@H]3C[C@H](NC(=O)CCC(=O)O)CC[C@]3(C)[C@H]1CC2"
result = "98%"

[[record]]
chemsmiles = "C[C@@]12CCC[C@H]1[C@@H]1CC[C@@H]3C[C@H](NC(=O)CCCC(=O)O)CC[C@]3(C)[C@H]1CC2"
result = "96%"

[[record]]
chemsmiles = "CC(C)(C)OC(=O)N[C@@H](CC(=O)N[C@@H]1CC[C@@]2(C)[C@H](CC[C@H]3[C@@H]4CCC[C@@]4(C)CC[C@@H]32)C1)C(=O)O"
result = "100%"

[[record]]
chemsmiles = "CC(C)(C)OC(=O)N[C@@H](CCC(=O)O)C(=O)N[C@@H]1CC[C@@]2(C)[C@H](CC[C@@H]3[C@@H]4CCC[C@@]4(C)CC[C@@H]32)C1"
result = "97%"

[[record]]
chemsmiles = "C[C@@]12CCC[C@H]1[C@@H]1CC[C@@H]3C[C@H](NC(=O)[C@@H](N)CCC(=O)O)CC[C@]3(C)[C@H]1CC2"
result = "98%"


====

# IC50 values compiled below
Target: GluN1/GluN2B receptors (Rattus norvegicus, UniProt P35439+Q00960)
Construct: expressed in transfected cells; host or cells: HEK293
Sequence (Q00960 27-1482, other chains not shown): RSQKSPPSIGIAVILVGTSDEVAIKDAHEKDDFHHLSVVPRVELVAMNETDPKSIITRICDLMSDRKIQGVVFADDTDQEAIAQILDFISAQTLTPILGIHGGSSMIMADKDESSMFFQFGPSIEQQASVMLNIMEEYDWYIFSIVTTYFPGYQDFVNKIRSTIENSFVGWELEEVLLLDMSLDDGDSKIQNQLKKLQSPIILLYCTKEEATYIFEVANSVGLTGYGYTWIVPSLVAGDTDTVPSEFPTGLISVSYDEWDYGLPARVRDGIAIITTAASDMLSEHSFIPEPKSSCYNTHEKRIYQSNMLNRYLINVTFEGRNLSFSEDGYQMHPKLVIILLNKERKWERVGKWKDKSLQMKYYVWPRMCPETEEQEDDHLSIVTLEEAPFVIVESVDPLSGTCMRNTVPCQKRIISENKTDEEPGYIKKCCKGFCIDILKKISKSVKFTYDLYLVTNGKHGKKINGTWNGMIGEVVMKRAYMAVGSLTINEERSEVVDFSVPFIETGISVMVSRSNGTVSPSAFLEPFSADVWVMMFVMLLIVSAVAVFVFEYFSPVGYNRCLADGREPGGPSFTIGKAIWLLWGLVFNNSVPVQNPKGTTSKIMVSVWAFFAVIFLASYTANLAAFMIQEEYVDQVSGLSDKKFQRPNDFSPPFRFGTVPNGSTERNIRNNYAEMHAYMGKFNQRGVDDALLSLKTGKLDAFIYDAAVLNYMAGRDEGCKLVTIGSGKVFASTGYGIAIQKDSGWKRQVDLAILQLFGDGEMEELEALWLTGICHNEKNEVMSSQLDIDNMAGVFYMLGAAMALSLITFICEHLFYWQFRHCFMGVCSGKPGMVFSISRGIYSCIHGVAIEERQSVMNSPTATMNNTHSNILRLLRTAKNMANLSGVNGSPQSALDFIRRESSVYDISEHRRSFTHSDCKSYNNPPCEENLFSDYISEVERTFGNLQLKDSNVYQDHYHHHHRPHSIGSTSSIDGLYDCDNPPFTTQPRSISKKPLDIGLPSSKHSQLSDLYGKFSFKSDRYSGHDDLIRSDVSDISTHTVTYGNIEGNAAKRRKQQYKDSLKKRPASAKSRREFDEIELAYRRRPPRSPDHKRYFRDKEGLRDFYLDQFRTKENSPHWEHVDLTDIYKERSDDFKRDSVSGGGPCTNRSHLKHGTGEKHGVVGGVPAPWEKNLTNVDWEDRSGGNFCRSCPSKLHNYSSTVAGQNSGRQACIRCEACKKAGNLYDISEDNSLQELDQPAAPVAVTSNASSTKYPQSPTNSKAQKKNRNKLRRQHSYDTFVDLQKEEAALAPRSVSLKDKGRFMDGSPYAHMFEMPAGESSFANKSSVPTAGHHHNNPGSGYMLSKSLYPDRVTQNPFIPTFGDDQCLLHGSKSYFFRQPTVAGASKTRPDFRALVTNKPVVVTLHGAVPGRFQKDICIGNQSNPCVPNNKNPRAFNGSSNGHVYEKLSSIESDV
Assay: Patch-clamp inhibition of glutamate responses of GluN1/GluN2B receptors in transfected HEK293 cells
Type: cell-based
Settings: current responses to glutamate, HEK293; IC50 from single steroid dose, Hill coefficient fixed at 1.2; read-out: IC50 ± SD
measuredParameter: IC50 (µM)

[[record]]
chemsmiles = "C[C@@]12CCC[C@H]1[C@@H]1CC[C@@H]3C[C@H](NC(=O)CCC(=O)O)CC[C@]3(C)[C@H]1CC2"
unitinfo = "µM"
quantitativereadout = 11.2

[[record]]
chemsmiles = "CC(C)(C)OC(=O)N[C@H](CCC(=O)N[C@@H]1CC[C@@]2(C)[C@H](CC[C@H]3[C@@H]4CCC[C@@]4(C)CC[C@@H]32)C1)C(=O)O"
unitinfo = "µM"
quantitativereadout = 3.4

[[record]]
chemsmiles = "CC(C)(C)OC(=O)N[C@@H](CC(=O)O)C(=O)N[C@@H]1CC[C@@]2(C)[C@H](CC[C@H]3[C@@H]4CCC[C@@]4(C)CC[C@@H]32)C1"
unitinfo = "µM"
quantitativereadout = 5.4

[[record]]
chemsmiles = "C[C@@]12CCC[C@H]1[C@@H]1CC[C@@H]3C[C@H](NC(=O)C[C@H](N)C(=O)O)CC[C@]3(C)[C@H]1CC2"
unitinfo = "µM"
quantitativereadout = 4.9

[[record]]
chemsmiles = "C[C@@]12CCC[C@H]1[C@@H]1CC[C@@H]3C[C@H](NC(=O)C(=O)O)CC[C@]3(C)[C@H]1CC2"
unitinfo = "µM"
quantitativereadout = 21.7

[[record]]
chemsmiles = "C[C@@]12CCC[C@H]1[C@@H]1CC[C@@H]3C[C@H](NC(=O)CCCC(=O)O)CC[C@]3(C)[C@H]1CC2"
unitinfo = "µM"
quantitativereadout = 8.9

[[record]]
chemsmiles = "C[C@@]12CCC[C@H]1[C@@H]1CC[C@@H]3C[C@H](NC(=O)[C@@H](N)CC(=O)O)CC[C@]3(C)[C@H]1CC2"
unitinfo = "µM"
quantitativereadout = 4.8

[[record]]
chemsmiles = "CC(C)(C)OC(=O)N[C@@H](CCC(=O)O)C(=O)N[C@@H]1CC[C@@]2(C)[C@H](CC[C@@H]3[C@@H]4CCC[C@@]4(C)CC[C@@H]32)C1"
unitinfo = "µM"
quantitativereadout = 5.4

[[record]]
chemsmiles = "C[C@@]12CCC[C@H]1[C@@H]1CC[C@@H]3C[C@H](NC(=O)[C@@H](N)CCC(=O)O)CC[C@]3(C)[C@H]1CC2"
unitinfo = "µM"
quantitativereadout = 1.4

[[record]]
chemsmiles = "CC(C)(C)OC(=O)N[C@@H](CC(=O)N[C@@H]1CC[C@@]2(C)[C@H](CC[C@H]3[C@@H]4CCC[C@@]4(C)CC[C@@H]32)C1)C(=O)O"
unitinfo = "µM"
quantitativereadout = 4.5


====

Biological target: GluN1/GluN2B receptors (Rattus norvegicus, UniProt P35439+Q00960)
Construct: expressed in transfected cells; host or cells: HEK293
Assay: Patch-clamp inhibition of glutamate responses of GluN1/GluN2B receptors in transfected HEK293 cells
Type: cell-based
Conditions: as repeated in Table 2; read-out: IC50
Friendly reminder: IC50 below 5 µM is criterion met, at or above is criterion not met.

[[record]]
molecule = "C[C@@]12CCC[C@H]1[C@@H]1CC[C@@H]3C[C@H](NC(=O)CCC(=O)O)CC[C@]3(C)[C@H]1CC2 [Compound 3]"
classname = "criterion not met"

[[record]]
molecule = "C[C@@]12CCC[C@H]1[C@@H]1CC[C@@H]3C[C@H](NC(=O)CCCC(=O)O)CC[C@]3(C)[C@H]1CC2 [Compound 4]"
classname = "criterion not met"

[[record]]
molecule = "C[C@@]12CCC[C@H]1[C@@H]1CC[C@@H]3C[C@H](NC(=O)C(=O)O)CC[C@]3(C)[C@H]1CC2 [Compound 1]"
classname = "criterion not met"

[[record]]
molecule = "C[C@@]12CCC[C@H]1[C@@H]1CC[C@@H]3C[C@H](NC(=O)[C@@H](N)CC(=O)O)CC[C@]3(C)[C@H]1CC2 [Compound 6]"
classname = "criterion met"

[[record]]
molecule = "C[C@@]12CCC[C@H]1[C@@H]1CC[C@@H]3C[C@H](NC(=O)[C@@H](N)CCC(=O)O)CC[C@]3(C)[C@H]1CC2 [Compound 8]"
classname = "criterion met"


====

Listing of entries alongside the reported IC50.
Biological target: GluN1/GluN2B receptors (Rattus norvegicus, UniProt P35439+Q00960)
Construct: expressed in transfected cells; host or cells: HEK293
Experiment: Patch-clamp inhibition of glutamate responses of GluN1/GluN2B receptors in transfected HEK293 cells
Type: cell-based
Structures can show the parent of a compound that is named as a salt.
measuredParameter: IC50 (µM)

[[record]]
compound = "CC(=O)C1CCC2C3CCC4CC(OC(=O)C(N)CCC(=O)O)CCC4(C)C3CCC12C (centres unmarked) [PAG, pregnanolone glutamate, reference compound]"
unitinfo = "µM"
quantitativereadout = 51.7

[[record]]
compound = "CC(=O)[C@H]1CC[C@H]2[C@@H]3CC[C@@H]4C[C@H](OS(=O)(=O)O)CC[C@]4(C)[C@H]3CC[C@]12C [PAS, 20-oxo-5β-pregnan-3α-yl sulfate, reference compound]"
unitinfo = "µM"
quantitativereadout = 24.6


====

Here, each record is paired with measured IC50 data.
Test system: HepG2 cells
Test: Mitotoxicity, XTT viability in glucose vs galactose medium
Details: Homo sapiens, HepG2, 24 h, read-out: Mitotoxicity IC50, 10 mM galactose
measuredParameter: IC50

[[record]]
chemsmiles = "C[C@@]12CCC[C@H]1[C@@H]1CC[C@@H]3C[C@H](NC(=O)C[C@H](N)C(=O)O)CC[C@]3(C)[C@H]1CC2"
result = "> 200 µM"

[[record]]
chemsmiles = "C[C@@]12CCC[C@H]1[C@@H]1CC[C@@H]3C[C@H](NC(=O)C(=O)O)CC[C@]3(C)[C@H]1CC2"
result = "72 µM"

[[record]]
chemsmiles = "CC(C)(C)OC(=O)N[C@@H](CC(=O)O)C(=O)N[C@@H]1CC[C@@]2(C)[C@H](CC[C@H]3[C@@H]4CCC[C@@]4(C)CC[C@@H]32)C1"
result = "> 200 µM"

